Target desc: T1, GFP-9S library array, motif 4 ND D124S (synthetic construct, D124S)
T1 chain: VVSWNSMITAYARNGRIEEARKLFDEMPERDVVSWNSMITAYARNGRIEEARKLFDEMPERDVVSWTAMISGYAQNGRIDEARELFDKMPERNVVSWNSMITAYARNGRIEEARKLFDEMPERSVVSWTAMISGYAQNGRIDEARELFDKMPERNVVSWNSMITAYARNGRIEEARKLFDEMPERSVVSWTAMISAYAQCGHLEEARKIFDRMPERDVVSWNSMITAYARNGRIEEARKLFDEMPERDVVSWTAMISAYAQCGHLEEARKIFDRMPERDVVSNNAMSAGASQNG
Assay remarks: high-throughput RNA pulldown from lysate on Ni-NTA beads; HRP: 50 mM Tris pH 8, 150 mM NaCl, 1 mM beta-mercaptoethanol, 50 ug/ml BSA, 3 ug/ml yeast RNA, 0.5% heparin; ITC and FP: Tris pH 8, 200 mM KCl, 5% glycerol; MST: 50 mM Tris pH 8, 200 mM NaCl, 1 mM DTT, BSA, heparin, 0.05% Tween 20
Assay setup: tags: N-terminal His-eGFP; label: 5' Cy5

Binder: AUUAGACGUGA (ssRNA) [Cy5-rpoA-G]
Kd: 522 nM

Binder: AUUACACGUGA (ssRNA) [Cy5-rpoA]
Kd: 2.01 nM

All figures here come from paper PMC8809517.
